# system_name: α-L-fucosidase (from bovine liver) (Bos taurus, UniProt Q2KIM0)
# Construct: a product of Sigma Company, originated from bovine liver; purchased Sigma; host or cells: bovine liver
# Sequence (Q2KIM0 23-468): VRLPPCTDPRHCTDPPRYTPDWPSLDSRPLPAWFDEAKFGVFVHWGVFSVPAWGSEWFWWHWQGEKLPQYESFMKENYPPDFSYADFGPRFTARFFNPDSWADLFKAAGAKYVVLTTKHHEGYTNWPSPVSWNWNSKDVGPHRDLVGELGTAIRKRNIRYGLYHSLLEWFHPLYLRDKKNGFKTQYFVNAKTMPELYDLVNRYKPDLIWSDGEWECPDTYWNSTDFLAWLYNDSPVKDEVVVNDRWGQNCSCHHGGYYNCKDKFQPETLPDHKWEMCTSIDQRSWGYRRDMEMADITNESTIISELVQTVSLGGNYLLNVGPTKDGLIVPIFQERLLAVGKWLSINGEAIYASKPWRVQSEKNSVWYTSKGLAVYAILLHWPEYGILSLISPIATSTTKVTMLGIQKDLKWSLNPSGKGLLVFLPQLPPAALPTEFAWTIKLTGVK
# test_details: α-fucosidase-inhibitory activity assay (Test Example 1)
# Type: biochemical
# condition_parameters: substrate p-nitrophenyl α-L-fucopyranoside, citrate-phosphate buffer pH 6.3, 37° C., 60 minutes, read-out: 50% Inhibiory Concentration (IC50) Enzyme A (converted)
value_kind: IC50 (nM)
The figure you give is taken to be in nM; do not add the unit.

**Query** Item under review: C[C@@H]1CN[C@@H](NC(=O)C(F)(F)F)[C@H](O)[C@@H]1O . Reported IC50?
**Result** 12.4

**Query** # input compound: C[C@@H]1CN[C@@H](N2C(=O)c3ccccc3C2=O)[C@H](O)[C@@H]1O ; wanted: its IC50
**Result** 14.5

**Query** Fill in the blank: the reported IC50 of CC(=O)N[C@@H]1NC[C@@H](C)[C@@H](O)[C@H]1O is ____.
**Result** 584

**Query** // returns reported IC50 for input C[C@@H]1CN[C@@H](N)[C@H](O)[C@@H]1O
**Result** 20.5

**Query** Looking for the measured IC50 of C[C@@H]1CN[C@@H](NC(=O)C(Cl)(Cl)Cl)[C@H](O)[C@@H]1O , can you help?
**Result** 10.3

###

# system_name: β-D-glucosidase (from almonds)
# test_details: β-glucosidase-inhibitory activity assay (Test Example 2)
# Assay type: biochemical, almond
# condition_parameters: substrate p-nitrophenyl β-D-glucoside, same manner as Test Example 1
# Procedure: Thus, 0.5 mL of 0.025M citrate-phosphate buffer (pH 6.3), 0.1 mL of the same buffer containing 1.5 mM p-nitrophenyl α-L-fucopyranoside dissolved therein, and 0.1 mL of either water or an aqueous solution containing as the tested compound any one of the compounds of the formulae (Ia), (Ib), (Ic) and (Id) according to this invention were mixed with each other and pre-incubated in a 96-well titer plate at 37° C. for 10 minutes. […]
value_kind: 50% Inhibiory Concentration (IC50) Enzyme C (µg/mL)
Provide only the numeric value, understood in µg/mL.

**Query** Any idea what its 50% Inhibiory Concentration (IC50) Enzyme C is? The compound is CC(=O)N[C@@H]1NC[C@@H](C)[C@@H](O)[C@H]1O
**Result** 2.3

**Query** Which 50% Inhibiory Concentration (IC50) Enzyme C value belongs to C[C@@H]1CN[C@@H](N)[C@H](O)[C@@H]1O ?
**Result** 50

**Query** What value of 50% Inhibiory Concentration (IC50) Enzyme C has been recorded for this entry: C[C@@H]1CN[C@@H](NC(=O)C(Cl)(Cl)Cl)[C@H](O)[C@@H]1O
**Result** 50

**Query** Entry C[C@@H]1CN[C@@H](N2C(=O)c3ccccc3C2=O)[C@H](O)[C@@H]1O has what 50% Inhibiory Concentration (IC50) Enzyme C?
**Result** 60

**Query** Quick one: 50% Inhibiory Concentration (IC50) Enzyme C of C[C@@H]1CN[C@@H](NC(=O)C(F)(F)F)[C@H](O)[C@@H]1O ?
**Result** 55
